# Test system: DMS-273
# TEST DETAILS: NCI tumour cell line growth inhibition, 48 h
Active and inactive are the calls of the source. Cut-off read from the data, not from the text of the source: active = GI50 up to about 1.1 µM and inactive = higher.
The compounds listed here are annotated with their GI50.
RECORDED METRIC: GI50

COMPOUND	RESULT
O=S(=O)(O)c1ccc(/N=N\c2ccc(/N=N/c3ccc(/C=C/c4ccc(/N=[N+](\[O-])c5ccc(/C=C/c6ccc(/N=N/c7ccc(/N=N/c8ccc(S(=O)(=O)O)cc8)c8ccccc78)cc6S(=O)(=O)O)c(S(=O)(=O)O)c5)cc4S(=O)(=O)O)c(S(=O)(=O)O)c3)c3ccccc23)cc1	> 100 µM (inactive)
C=C1CC(C/C=C(\C)CC2CC(=C)C(=O)O2)OC1=O (stereo not given)	> 100 µM (inactive)
CCOC(=O)C(Cc1ccccc1)NC(=O)OC(C)(C)C (stereo not given)	> 100 µM (inactive)
COc1ccc2c(c1)C(O)(C(F)(F)F)c1cc(C(=O)C(F)(F)F)c3ccccc3c1N2 (stereo not given)	11 µM (inactive)
COc1cc(CNc2nc3c(N)cc(C(F)(F)F)cc3nc2-c2ccccc2)cc(OC)c1OC	37.8 µM (inactive)

====

# Tested on: SF-539
# TEST DETAILS: NCI tumour cell line growth inhibition, 48 h
Calls of active or inactive are those of the source. Rule as the data show it: active = GI50 up to about 1.1 µM and inactive = higher.
Outcomes: 1 (active), 0 (inactive)

>>> print(df.to_string())
                                   molecule  system_tested  qualitative_label
0  N#CC(NCCc1ccccc1)c1ccccc1 (stereo unspecified)         SF-539                  0
1  c1nc(N2CC2)c2cnn(C3CCCCO3)c2n1 (stereo unspecified)         SF-539                  0
2  CCC(C)NC(=S)N/N=C(\C)c1ccccn1 (stereo unspecified)         SF-539                  1
3  COc1cc2c(cc1OC)C(C#N)N(C(=O)c1ccccc1)C=C2OC(=O)c1ccccc1 (stereo unspecified)         SF-539                  0
4   COc1cc2c3c(c1)c1cc(OC)c(OC)cc1c[n+]3CC2         SF-539                  0
5  C=CC[P@]1(=O)O[C@H](c2ccccc2)C(C)N1C(C)C (stereo partly specified)         SF-539                  0

====

# Test system: DU-145
# TEST DETAILS: NCI tumour cell line growth inhibition, 48 h
Active and inactive are the calls of the source. Rule as the data show it: active = GI50 up to about 1.1 µM and inactive = higher.
Overview of recorded GI50 for various compounds
RECORDED METRIC: GI50

>>> df
                                    compound  system_tested  recorded_metric               result
 0  Cn1c(=O)c2nc(CCCCc3nc4c(=O)n(C)c(=S)n(C)c4[nH]3)[nH]c2n(C)c1=S         DU-145             GI50  > 100 µM (inactive)
 1  O=c1[nH]n(Cc2ccccc2Cl)c2ccc([N+](=O)[O-])cc12         DU-145             GI50  > 100 µM (inactive)
 2  COC(=O)C1CCC(=O)N1C(c1ccccc1)c1cc(OC)c(OC)c(OC)c1 (centres undefined)         DU-145             GI50  > 100 µM (inactive)
 3  c1ccc2nn(C3CCCCO3)nc2c1 (centres undefined)         DU-145             GI50  > 100 µM (inactive)
 4    CCC(=O)Nc1ccc(NCC(=O)Nc2ccc(Cl)cc2)cc1         DU-145             GI50   17.9 µM (inactive)
 5  COc1cc2c(/C=C3/C(=O)Nc4ccc(O)cc43)c(Cl)n(Cc3ccccc3)c2cc1C         DU-145             GI50   1.16 µM (inactive)
 6                 CCOc1snc(C(Cl)(Cl)Cl)c1Cl         DU-145             GI50   16.6 µM (inactive)
 7          O=c1[nH]c2cc3cccnc3c(Cl)c2nc1CBr         DU-145             GI50   15.6 µM (inactive)
 8  O=C1NC(=O)[C@@H](OCC2CCCCC2)[C@@H]2OCC3OC(C(O)C3O)C12 (some centres undefined)         DU-145             GI50  > 100 µM (inactive)
 9  CCCC(=O)Nc1cc(C(=O)N2C[C@@H]3C[C@]34C2=CC(=O)c2[nH]cc(C)c24)n(COC)c1         DU-145             GI50   2.54 µM (inactive)
10  COc1cc2c(cc1C)NC(=O)/C2=C/c1c(Cl)[nH]c2ccccc12         DU-145             GI50   13.3 µM (inactive)
11  COC(=O)C(Cc1ccccc1)NP(=O)(O)OCC1OC(n2cc(I)c(=O)[nH]c2=O)CC1O (centres undefined)         DU-145             GI50  > 100 µM (inactive)
12  NS(=O)(=O)c1nnc(NS(=O)(=O)c2ccccc2C(=O)O)s1         DU-145             GI50  > 100 µM (inactive)
13  CCN1CCC(O)(/C=C/c2cccc(C)c2)C(C(=O)/C=C/c2cccc(C)c2)C1 (centres undefined)         DU-145             GI50   3.94 µM (inactive)
14  CC1=CC(C)(C)[C@H]2O[C@@]3(O)C[C@]4(C)[C@H]5C[C@@](C(C)C)(O[C@H]4c4ccoc4)O[C@H]4[C@]5(C3)O[C@@]1(O)[C@]24O         DU-145             GI50  > 100 µM (inactive)
15  OCC(CCc1ccccc1I)C1=CCC2(CC1)OCCO2 (centres undefined)         DU-145             GI50   19.5 µM (inactive)
16  CC(C)c1ccc2c(c1)/C(=C1/Nc3ccccc3C1=O)C(=O)N2         DU-145             GI50   15.2 µM (inactive)
17                  Cc1nc2c(=O)[nH]ncc2[nH]1         DU-145             GI50  > 100 µM (inactive)
18                O=C1CSc2nc3ccccc3n2/C=N\N1         DU-145             GI50  > 100 µM (inactive)

====

# System: OVCAR-3
# TEST DETAILS: NCI tumour cell line growth inhibition, 48 h
Calls of active or inactive are those of the source. Cut-off read from the data, not from the text of the source: active = GI50 up to about 1.1 µM and inactive = higher. Where a SMILES comes first, the peptide text is derived from it. The star is where a group is joined. Boc = CC(C)(C)OC(=O)*; OBn = c1ccc(CO*)cc1
RECORDED METRIC: GI50

COMPOUND	RESULT
N#CC(C(=O)CCCC(=O)Nc1ccc(Cl)cc1Cl)c1ccccc1 (stereo not drawn)	> 100 µM (inactive)
O=[N+]([O-])c1ccc(C2Nn3c(nnc3-c3cccc([N+](=O)[O-])c3)S2)cc1 (stereo not drawn)	> 100 µM (inactive)
CC(C)CC(NC(=O)C(Cc1ccccc1)NC(=O)C(Cc1ccccc1)NC(=O)OC(C)(C)C)C(=O)OCc1ccccc1 (stereo not drawn) (Boc-Phe-Phe-Leu-OBn; configuration not given here)	> 100 µM (inactive)
O=C1C=C(N2CCN(c3ncccn3)CC2)C(=O)c2c(O)ccc(O)c21	> 100 µM (inactive)
Cc1ccc(S(=O)OCC23CC4CC(CC(C4)C2)C3)cc1 (stereo not drawn)	> 100 µM (inactive)
Cn1c(-c2ccc(/N=N/Nc3ccc(-c4n[nH]c(=S)n4C)cc3)cc2)n[nH]c1=S	33.3 µM (inactive)
COc1ccc2[nH]cc(CCNC(=O)[C@H](Cc3ccc(O)cc3)NC(=O)[C@@H](NCC(F)(F)F)C(C)C)c2c1	20.1 µM (inactive)
C[C@]12CCC(=O)C(O)=C1CC[C@@H]1[C@@H]2CC[C@]2(C)C(=O)CC[C@@H]12	> 100 µM (inactive)

====

# Test system: SF-539
# TEST DETAILS: NCI tumour cell line growth inhibition, 48 h
Active and inactive are the calls of the source. Rule as the data show it: active = GI50 up to about 1.1 µM and inactive = higher. Where a SMILES comes first, the peptide text is derived from it. The star is where a group is joined. Boc = CC(C)(C)OC(=O)*; OBn = c1ccc(CO*)cc1
Labels: label 1 (active), label 0 (inactive)

COMPOUND	SYSTEM TESTED	QUALITATIVE LABEL
CCN(CC)CC[n+]1ccc2c(C)c3[nH]c4ccccc4c3c(C)c2c1	SF-539	label 1
O=C1C2CC=CCC2C(=O)N1n1c(-c2ccccc2)n[nH]c1=O (stereo unspecified)	SF-539	label 0
CC1(C)CCC2(C(=O)OC3OC(CO)C(O)C(O)C3O)CCC3(C)C(=CCC4C5(C)CCC(OC6OC(CO)C(O)C(O)C6O)C(C)(C)C5CCC43C)C2C1 (stereo unspecified)	SF-539	label 0
CCN(CC)CC(=O)Nc1ccc2c(c1)C(=O)c1ccc(NC(=O)CN(CC)CC)cc1C2=O	SF-539	label 0
COC(=O)CN1Cc2cc(C)cc(c2O)CN(CC(=O)OC)Cc2cc(C)cc(c2O)CN(CC(=O)OC)Cc2cc(C)cc(c2O)C1	SF-539	label 0
COc1cc2c(oc(=O)c3c4oc([Si](C)(C)C)cc4cc(OC)c23)c2cccc(O)c12	SF-539	label 0
COc1ccc(N2C(=O)C(=O)N(c3ccc(/N=N\c4ccccc4)cc3)C2=S)cc1	SF-539	label 0
CO/C=C(/C(=O)OC)c1ccccc1COc1cccc(C(F)(F)F)c1	SF-539	label 0
CSc1cnc2ccccc2c1Sc1cn(C)c2ccccc2c1=O	SF-539	label 0
CC(C)CC(NC(=O)C(Cc1ccccc1)NC(=O)C(Cc1ccccc1)NC(=O)OC(C)(C)C)C(=O)OCc1ccccc1 (stereo not drawn) (Boc-Phe-Phe-Leu-OBn; configuration not given here)	SF-539	label 0
CC(C)CC12CC3CCC(CNC1=O)C32C (stereo unspecified)	SF-539	label 0
C=CCN1/C(=C(\C#N)c2nc3ccccc3[nH]2)Sc2c1nc[nH]c2=O	SF-539	label 0
CCOc1snc(C(Cl)(Cl)Cl)c1Cl	SF-539	label 0
N#Cc1c2c(c(N3CCOCC3)n3c1nc1ccccc13)CCCC2	SF-539	label 0
COc1cc(OCc2ccc3nc(OC)c(OC)nc3c2)cc(OC)c1OC	SF-539	label 0
COc1ccc(-c2cc(-c3cc(OC)c(OC)c(OC)c3)cc(-c3cc4ccccc4oc3=O)n2)cc1	SF-539	label 0
COc1ccc(-n2c3c(c4cc(O)ccc42)Cc2ccccc2C3=O)cc1	SF-539	label 0
COc1cc(O)c2c(=O)cc(-c3ccc(O)cc3O)oc2c1CC=C(C)C	SF-539	label 0
CC(C)(C)C[P+](C)(C)c1ccccc1	SF-539	label 0
CCN(CC)C(=S)/N=C(\SC(=S)N(CC)CC)c1ccccc1	SF-539	label 0
C[C@@]12CCC3C1C=C1C(=O)c4cc(O)ccc4C(=O)[C@]1(O2)[C@@]3(C)C=O	SF-539	label 0
O=C1CCC(=O)C1=NNc1cc(Cl)cc(Cl)c1	SF-539	label 0
CCOC(=O)Nc1nn[nH]c1Cl	SF-539	label 0
COC(=O)C1CCC(=O)N1C(c1ccccc1)c1cc(OC)c(OC)c(OC)c1 (stereo unspecified)	SF-539	label 0
CC(=O)Nc1ccc(C2SCc3nc4ccccc4n32)cc1 (stereo unspecified)	SF-539	label 0
COC(=O)C1=CN(C2CCCCC2)C2(c3ccccc3)c3ccccc3C(=O)OC(=O)C12 (stereo unspecified)	SF-539	label 0
CC(C)=NNC(=S)NC12CC3CC(CC(C3)C1)C2	SF-539	label 0
CCOC(OC1=C(C#N)CCC1)C(C)[Se]c1ccccc1 (stereo unspecified)	SF-539	label 0
Cc1cc(N(CCC#N)CCC#N)ccc1C(/N=N/c1ccc(C(=O)O)cc1)=N\NC(=O)c1ccccc1	SF-539	label 0
CN(C)CCn1c(=O)nc2c3c(c([N+](=O)[O-])ccc31)Nc1ccc(O)cc1-2	SF-539	label 0
O=C1NC(=O)[C@@H](OCC2CCCCC2)[C@@H]2OCC3OC(C(O)C3O)C12 (stereo partly specified)	SF-539	label 0
CC(C)(C)c1cc(C(O)(C(F)(F)F)C(F)(F)F)c2c(c1)C(C(F)(F)F)(C(F)(F)F)OC(C(C)(C)C)N2 (stereo unspecified)	SF-539	label 0
O=c1[nH]n(Cc2ccccc2Cl)c2ccc([N+](=O)[O-])cc12	SF-539	label 0
CCCNC(=S)NNC(=O)CSc1nc(-c2ccccc2)c(-c2ccccc2)[nH]1	SF-539	label 0
CCc1n[nH]c(=O)n1CCCCCCCCCCCCn1c(CC)n[nH]c1=O	SF-539	label 0
CCOC(=O)C(Cc1ccccc1)NC(=O)OC(C)(C)C (stereo unspecified)	SF-539	label 0
N#CC1(C#N)C(=O)c2ccncc2C1=O	SF-539	label 0
CN1CCN(/C(N)=C(\C#N)C(=O)Nc2ccccc2)CC1	SF-539	label 0
CCCN1CN(c2ccccc2)C2(CCN(CCCC(=O)c3ccc(F)cc3)CC2)C1=O	SF-539	label 0
C=C1CC(C/C=C(\C)CC2CC(=C)C(=O)O2)OC1=O (stereo unspecified)	SF-539	label 0
CC(C)/C=N\N1C(N)=C(C#N)C(C#N)(C#N)C1C(C)C (stereo unspecified)	SF-539	label 0

The origin of these recorded values is ChEMBL document CHEMBL1201862.
